Please consider the recorded pIC50 for UniProt P06276 in what follows.
Sequence (P06276 whole entry): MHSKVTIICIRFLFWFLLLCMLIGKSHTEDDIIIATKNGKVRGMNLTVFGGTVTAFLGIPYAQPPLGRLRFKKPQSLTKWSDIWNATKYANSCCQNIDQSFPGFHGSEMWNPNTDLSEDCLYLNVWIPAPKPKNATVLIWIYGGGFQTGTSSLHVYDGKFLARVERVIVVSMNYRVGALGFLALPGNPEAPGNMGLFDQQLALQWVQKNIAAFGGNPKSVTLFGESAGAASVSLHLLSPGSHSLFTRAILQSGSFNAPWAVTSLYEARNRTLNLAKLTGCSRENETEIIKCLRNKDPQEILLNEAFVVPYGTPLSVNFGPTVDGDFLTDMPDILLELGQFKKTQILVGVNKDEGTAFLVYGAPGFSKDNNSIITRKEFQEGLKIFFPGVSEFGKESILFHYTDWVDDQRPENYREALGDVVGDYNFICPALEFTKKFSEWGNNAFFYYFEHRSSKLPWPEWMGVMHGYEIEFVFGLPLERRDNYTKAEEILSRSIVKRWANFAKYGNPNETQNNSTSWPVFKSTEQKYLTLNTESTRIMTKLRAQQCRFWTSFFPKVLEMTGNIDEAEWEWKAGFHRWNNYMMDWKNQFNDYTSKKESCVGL
Note on pIC50: it is the negative log10 of concentration, concentration in mol/L.

Completed entries (count: 2):
COc1cc(/C=C/c2cc(=O)oc3c2ccc2oc(-c4ccc(C)cc4)cc23)cc(OC)c1	5.46
COc1cc(/C=C/c2cc(=O)oc3c2ccc2oc(-c4cccc(Cl)c4)cc23)cc(OC)c1	5.46

Consider now this further compound.
Request: Entry under review: COc1cc(/C=C/c2cc(=O)oc3c2ccc2oc(-c4ccccc4)cc23)cc(OC)c1 . Reported pIC50?
Response: 5.46

---

- test-system: UniProt P22303
- Sequence (P22303 whole entry): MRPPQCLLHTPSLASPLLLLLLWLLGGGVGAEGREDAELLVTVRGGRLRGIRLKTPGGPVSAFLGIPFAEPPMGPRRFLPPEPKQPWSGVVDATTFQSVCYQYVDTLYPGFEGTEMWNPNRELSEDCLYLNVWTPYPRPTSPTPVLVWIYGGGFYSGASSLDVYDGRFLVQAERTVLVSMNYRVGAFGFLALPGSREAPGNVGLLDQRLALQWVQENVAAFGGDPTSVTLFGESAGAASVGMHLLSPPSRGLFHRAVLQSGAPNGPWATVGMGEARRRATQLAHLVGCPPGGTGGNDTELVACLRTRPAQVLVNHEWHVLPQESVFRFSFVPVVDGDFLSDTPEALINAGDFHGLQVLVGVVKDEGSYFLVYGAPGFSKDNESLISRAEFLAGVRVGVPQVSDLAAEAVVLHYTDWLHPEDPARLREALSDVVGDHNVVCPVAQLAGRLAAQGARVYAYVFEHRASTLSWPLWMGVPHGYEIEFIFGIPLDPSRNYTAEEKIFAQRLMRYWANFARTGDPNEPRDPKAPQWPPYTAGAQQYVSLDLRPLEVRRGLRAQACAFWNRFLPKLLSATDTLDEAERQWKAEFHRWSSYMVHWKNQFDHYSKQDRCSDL
- protocol-notes: Inhibition of AChE (unknown origin) incubated for 30 mins by Ellman's method
IC50 reference
Form field: result (number plus unit)

Completed entries (count: 2):
COc1ccc(-c2cc3c(ccc4c(/C=C/c5cc(OC)cc(OC)c5)cc(=O)oc43)o2)cc1	1800 nM
COc1cc(/C=C/c2cc(=O)oc3c2ccc2oc(-c4cccc(Cl)c4)cc23)cc(OC)c1	1800 nM

Consider now this further compound.
Request: Entry under review: COc1cc(/C=C/c2cc(=O)oc3c2ccc2oc(-c4cc(OC)cc(OC)c4)cc23)cc(OC)c1 . Reported IC50?
Response: 2800 nM
